Assay: folding stability dG unfold (combined trypsin and chymotrypsin); higher = more stable
Threshold check on folding stability dG unfold: at or above 1 kcal/mol gives label 1, strictly below gives label 0.

MACROMOLECULE SEQUENCE	CATEGORY
MPLGLESERYPNGAPTIESVEVPEDGSVKITLYFPETGEKVEYTLPPNIPPGTEYEIDLPGPTGTGRLRLGS [r1_43_TrMRF]	label 1
SAGGSAGGNEIAEKLKKKYPNIKIKSVKINPKEGKIEIDLGFPKDAKPETIKKIEKEIEELAKKSAGGSAGG [r6_97_TrMRF]	label 0
SAGGSAGGSAGGSKIENIKDIERNPNPDGHYMITIPNGWQIVVRMDKNGKMEIEIVPLKSAGGSAGGSAGGS [r4_177_TrROS]	label 1
SAGGSAGGSMIKVKITYPNGEEKTIEIEAETEEEAEEAAKKLAEELGKDVKVEVEKVSPEELKSAGGSAGGS [r12_385_TrROS_Hall]	label 1
SAGEKKKVVIVVHIHIEAESEEDREKALEEARKLAEELARELKEKLGLPEDVKEVVVIVHIHPRSEEEKSAG [r5_436_TrROS_Hall]	label 1
SAGGSAGGSAGLTFTLPDGTKITIETLEDGSVKIKIETLTPDGKPLEAEFVIPGSHPDEDSAGGSAGGSAGG [r17_471_TrMRF]	label 1
SAGGSAGGSGMPTRNVPITTPDGKVVTVVERPPERAEIIFPDGSRATIVDPARGYEEITITPESAGGSAGGS [r12_491_JUSTAS]	label 0

----------
Experiment: folding stability dG unfold from trypsin proteolysis; higher = more stable
folding stability dG unfold listing for selected sequences.
READOUT KIND: folding stability dG unfold (kcal/mol)

MACROMOLECULE SEQUENCE	SCALE UNIT	NUMERIC READOUT
SAGGSAGGSAGMEIPEDWTVVEESEVPDERLVTVHNPKTGELYVVTQPPATGEETVERYLSAGGSAGGSAGG [r11_896_JUSTAS]	kcal/mol	0.0248
SAGGSAGGSAGPPTSILEVKPGGEVTIKEGGTPVTVPSSVPYINLPEGGSAGSVEVPPELSAGGSAGGSAGG [r11_647_JUSTAS]	kcal/mol	0.394
SAGGMITLTVTREDWDTVYAKLKAEKNVTVKVVKGNTWSTYPASEVKALREEIPADPNEPLTLEIVESAGGS [r16_377_JUSTAS]	kcal/mol	0.0201
SAGGMKIEIELEDGYLRVKIYDKDGKLIEEIEIKIEKVEPPPEVEVELSPEELAKKLGVEIEIKEKESAGGS [r16_778_TrROS_Hall]	kcal/mol	1.62
SAGDLAEYIAETLQDHFPNMEVEVEIDGVEDGYIVIDITIYFRDMKDNENKPRWVPWEIVIPPGEPLPSAGG [r19_8_TrROS]	kcal/mol	2.36
SAGGPETRTFTIPAAPATVTVTLEKVGDGYRVSLTLTNPDGQTVEVPPDQPVVIPAGASVGAALAPESAGGS [r16_669_TrMRF]	kcal/mol	1.01
SAPIRPGQDLKIEPEIRRYPNGSMSYTYRLEFPNGPTVHVRHTMQRDPEHGKPRHKWDIHLSPKALEAFSAG [r14_842_TrROS]	kcal/mol	1.49

----------
folding stability dG unfold listing for selected sequences.
Assay: folding stability dG unfold from trypsin proteolysis; higher = more stable

MACROMOLECULE SEQUENCE	folding stability dG unfold [kcal/mol]
SAGKKKKIKKIEIEIEKNKDGKEIKVKVKVDGKEYEFTFPKNMSLEELLKKLKEELEKEGLKIEEVEIKSAG [r5_305_TrROS_Hall]	2.5
SAGGSAGGSAGGDRLKIIIPFPPGMDIDQIAEELKPHFKKVEIEHDKEDGWVTIEVELDSAGGSAGGSAGGS [r10_1007_TrROS]	0.271
SAGGSAGGSAGGKGWPTVEIPMPENGKPTPDSIEEIAEKFNMPNVEVEQSDDWHKIDVDSAGGSAGGSAGGS [r10_642_TrROS]	0.92
SAMLTTLETTTTTSDSLTVTTSLSLLPDGSLVTTTTVIDTSGNVLSSTTTVEPGPPPVTPENIALMVRLSAG [r14_171_JUSTAS]	0.298
